Assay: in vivo
Details: mouse, plasma
recordedMetric: AUC (µM·h)

>  <givenSmiles>
CC#CC(=O)N[C@H]1CCCN(c2ccc(C(N)=O)c3[nH]c(C)c(C)c23)C1

>  <recordedMetric>
AUC

>  <reading>
1.1

$$$$
>  <givenSmiles>
CC#CC(=O)N[C@H]1CCCN(c2c(F)cc(C(N)=O)c3[nH]c(C)c(C)c23)C1

>  <recordedMetric>
AUC

>  <reading>
52

$$$$

---

Assay: in vivo
Settings: dog, iv, 1 mg/kg

>  <givenSmiles>
CC#CC(=O)N[C@H]1CCCN(c2c(F)cc(C(N)=O)c3[nH]c(C)c(C)c23)C1

>  <Vd>
0.24 L/kg

$$$$

---

Assay: in vivo
Settings: rhesus monkey, po, 2 mg/kg

>  <compound>
CC#CC(=O)N[C@H]1CCCN(c2c(F)cc(C(N)=O)c3[nH]c(C)c(C)c23)C1 [BRANEBRUTINIB]

>  <Cmax (nM)>
2300

$$$$

---

Assay: in vivo
Conditions: dog, iv, 1 mg/kg

>  <compound>
CC#CC(=O)N[C@H]1CCCN(c2c(F)cc(C(N)=O)c3[nH]c(C)c(C)c23)C1 [BRANEBRUTINIB]

>  <MRT (h)>
4.1

$$$$

---

Experiment: in vitro
Conditions: human, microsomes
Known remaining at 10 min of a selection of molecules

>  <givenSmiles>
C=CS(=O)(=O)N[C@@H]1CCCN(c2ccc(C(N)=O)c3[nH]c(C)c(C)c23)C1

>  <remaining at 10 min>
84%

$$$$
>  <givenSmiles>
C=CS(=O)(=O)N[C@H]1CCCN(c2ccc(C(N)=O)c3[nH]c(C)c(C)c23)C1

>  <remaining at 10 min>
90%

$$$$

---

Assay: in vitro
Conditions: rhesus monkey, plasma

>  <compound>
CC#CC(=O)N[C@H]1CCCN(c2c(F)cc(C(N)=O)c3[nH]c(C)c(C)c23)C1 [BRANEBRUTINIB]

>  <fraction unbound>
0.004

$$$$

---

Assay: in vitro
Conditions: human, microsomes

>  <givenSmiles>
C=CS(=O)(=O)N[C@H]1CCCN(c2ccc(C(N)=O)c3[nH]c(C)c(C)c23)C1

>  <half-life>
50 min

$$$$

---

Experiment: in vivo
Details: rat, po, 5 mg/kg

>  <givenSmiles>
CC#CC(=O)N[C@H]1CCCN(c2c(F)cc(C(N)=O)c3[nH]c(C)c(C)c23)C1

>  <Tmax / min>
34.8

$$$$

---

Assay: in vitro
Conditions: human, Caco-2
recordedMetric: Papp B→A

>  <givenSmiles>
CC#CC(=O)N[C@H]1CCCN(c2c(F)cc(C(N)=O)c3[nH]c(C)c(C)c23)C1

>  <reading>
12.7 to 25 ×10⁻⁶ cm/s

$$$$

---

Assay: in vivo
Details: rat, iv, 5 mg/kg
recordedMetric: MRT (min)

>  <compound>
CC#CC(=O)N[C@H]1CCCN(c2c(F)cc(C(N)=O)c3[nH]c(C)c(C)c23)C1 [BRANEBRUTINIB]

>  <recordedMetric>
MRT

>  <reading>
48

$$$$

---

Test: in vivo
Settings: rhesus monkey, iv, 1 mg/kg
recordedMetric: half-life (h)

>  <givenSmiles>
CC#CC(=O)N[C@H]1CCCN(c2c(F)cc(C(N)=O)c3[nH]c(C)c(C)c23)C1

>  <reading>
3.2

$$$$

---

Assay: physchem
Conditions: fasted state simulated intestinal fluid (FaSSIF)

>  <molecule>
CC#CC(=O)N[C@H]1CCCN(c2c(F)cc(C(N)=O)c3[nH]c(C)c(C)c23)C1 [BRANEBRUTINIB]

>  <solubility>
9 µg/mL

$$$$

---

Assay: in vivo
Settings: mouse, po, 4 mg/kg

>  <compound>
CC#CC(=O)N[C@H]1CCCN(c2c(F)cc(C(N)=O)c3[nH]c(C)c(C)c23)C1 [BRANEBRUTINIB]

>  <AUC, µM·h>
14

$$$$

---

Test: in vivo
Conditions: mouse, iv, 2 mg/kg

>  <compound>
CC#CC(=O)N[C@H]1CCCN(c2c(F)cc(C(N)=O)c3[nH]c(C)c(C)c23)C1 [BRANEBRUTINIB]

>  <MRT, min>
34.2

$$$$

---

Assay: in vivo
Conditions: rat, iv, 5 mg/kg
recordedMetric: clearance (mL/min/kg)

>  <molecule>
CC#CC(=O)N[C@H]1CCCN(c2c(F)cc(C(N)=O)c3[nH]c(C)c(C)c23)C1 [BRANEBRUTINIB]

>  <reading>
8.7

$$$$

---

Test: in vivo
Conditions: dog, po, 2 mg/kg
recordedMetric: Cmax (µM)

>  <givenSmiles>
CC#CC(=O)N[C@H]1CCCN(c2c(F)cc(C(N)=O)c3[nH]c(C)c(C)c23)C1

>  <reading>
19

$$$$

---

Assay: in vivo
Details: rat, po, 5 mg/kg

>  <compound>
CC#CC(=O)N[C@H]1CCCN(c2c(F)cc(C(N)=O)c3[nH]c(C)c(C)c23)C1 [BRANEBRUTINIB]

>  <AUC>
18 µM·h

$$$$

---

Assay: in vivo
Conditions: rhesus monkey, po, 2 mg/kg

>  <givenSmiles>
CC#CC(=O)N[C@H]1CCCN(c2c(F)cc(C(N)=O)c3[nH]c(C)c(C)c23)C1

>  <bioavailability / %>
46

$$$$

---

Experiment: in vivo
Conditions: dog, po, 2 mg/kg

>  <givenSmiles>
CC#CC(=O)N[C@H]1CCCN(c2c(F)cc(C(N)=O)c3[nH]c(C)c(C)c23)C1

>  <bioavailability, %>
81

$$$$

---

Assay: in vivo
Conditions: mouse, iv, 2 mg/kg

>  <givenSmiles>
CC#CC(=O)N[C@H]1CCCN(c2c(F)cc(C(N)=O)c3[nH]c(C)c(C)c23)C1

>  <unit>
L/kg

>  <Vd>
0.48

$$$$

---

Test: physchem
Details: buffer, pH 7

>  <givenSmiles>
CC#CC(=O)N[C@H]1CCCN(c2c(F)cc(C(N)=O)c3[nH]c(C)c(C)c23)C1

>  <logD>
3.18

$$$$

---

Test: in vivo
Conditions: rhesus monkey, iv, 1 mg/kg

>  <givenSmiles>
CC#CC(=O)N[C@H]1CCCN(c2c(F)cc(C(N)=O)c3[nH]c(C)c(C)c23)C1

>  <unit>
mL/min/kg

>  <clearance>
9.4

$$$$

---

Test: in vivo
Conditions: mouse, iv, 2 mg/kg
recordedMetric: half-life (min)

>  <givenSmiles>
CC#CC(=O)N[C@H]1CCCN(c2c(F)cc(C(N)=O)c3[nH]c(C)c(C)c23)C1

>  <unit>
min

>  <reading>
27.6

$$$$

---

Assay: in vitro
Settings: mouse, plasma
recordedMetric: fraction unbound

>  <compound>
CC#CC(=O)N[C@H]1CCCN(c2c(F)cc(C(N)=O)c3[nH]c(C)c(C)c23)C1 [BRANEBRUTINIB]

>  <recordedMetric>
fraction unbound

>  <reading>
0.004

$$$$

---

Assay: in vivo
Details: mouse, po, 4 mg/kg

>  <compound>
CC#CC(=O)N[C@H]1CCCN(c2c(F)cc(C(N)=O)c3[nH]c(C)c(C)c23)C1 [BRANEBRUTINIB]

>  <Tmax>
1 h

$$$$

---

Experiment: in vivo
Conditions: mouse, po, 4 mg/kg

>  <molecule>
CC#CC(=O)N[C@H]1CCCN(c2c(F)cc(C(N)=O)c3[nH]c(C)c(C)c23)C1 [BRANEBRUTINIB]

>  <bioavailability [%]>
106

$$$$

---

Experiment: physchem
Conditions: buffer, pH 1

>  <givenSmiles>
CC#CC(=O)N[C@H]1CCCN(c2c(F)cc(C(N)=O)c3[nH]c(C)c(C)c23)C1

>  <solubility>
2 to 3 µg/mL

$$$$
